# Substrate: O=CC(O)COP(=O)(O)O
# TEST_DETAILS: purified protein
# Format: biochemical, Bacillus subtilis
# EXPERIMENTAL_CONTEXT: His-tagged proteins, R5P and glutamine as co-substrates, 50 mM Tris-Cl pH 7.5, 37°C
This section presents proteins with their documented kcat values.
METRIC_NAME: kcat (s⁻¹)

PROTEIN	METRIC_NAME	MEASUREMENT_UNITS	QUANTITATIVE_READOUT
PLP synthase (Pdx1-His6 + Pdx2) (Bacillus subtilis subsp. subtilis str. 168; K187A) (protein, complex of C-terminally hexahistidine-tagged Pdx1 with Pdx2-His6; with Pyridoxal 5'-phosphate synthase subunit PdxT) AQTGTERVKRGMAEMQKGGVIMDVINAEQAKIAEEAGAVAVMALERVPADIRAAGGVARMADPTIVEEVMNAVSIPVMAKARIGHIVEARVLEAMGVDYIDESEVLTPADEEFHLNKNEYTVPFVCGCRDLGEATRRIAEGASMLRTKGEPGTGNIVEAVRHMRKVNAQVRKVVAMSEDELMTEAANLGAPYELLLQIKKDGKLPVVNFAAGGVATPADAALMMQLGADGVFVGSGIFKSDNPAKFAKAIVEATTHFTDYKLIAELSKELGTAMKGIEISNLLPEQRMQERGW	kcat	s⁻¹	0.0005
PLP synthase (Pdx1-His6 + Pdx2) (Bacillus subtilis subsp. subtilis str. 168; E105D) (protein, complex of C-terminally hexahistidine-tagged Pdx1 with Pdx2-His6; with Pyridoxal 5'-phosphate synthase subunit PdxT) AQTGTERVKRGMAEMQKGGVIMDVINAEQAKIAEEAGAVAVMALERVPADIRAAGGVARMADPTIVEEVMNAVSIPVMAKARIGHIVEARVLEAMGVDYIDESDVLTPADEEFHLNKNEYTVPFVCGCRDLGEATRRIAEGASMLRTKGEPGTGNIVEAVRHMRKVNAQVRKVVAMSEDELMTEAKNLGAPYELLLQIKKDGKLPVVNFAAGGVATPADAALMMQLGADGVFVGSGIFKSDNPAKFAKAIVEATTHFTDYKLIAELSKELGTAMKGIEISNLLPEQRMQERGW	kcat	s⁻¹	0.000233
PLP synthase (Pdx1-His6 + Pdx2) (Bacillus subtilis subsp. subtilis str. 168; H115A/R138A) (protein, complex of C-terminally hexahistidine-tagged Pdx1 with Pdx2-His6; with Pyridoxal 5'-phosphate synthase subunit PdxT) AQTGTERVKRGMAEMQKGGVIMDVINAEQAKIAEEAGAVAVMALERVPADIRAAGGVARMADPTIVEEVMNAVSIPVMAKARIGHIVEARVLEAMGVDYIDESEVLTPADEEFALNKNEYTVPFVCGCRDLGEATRAIAEGASMLRTKGEPGTGNIVEAVRHMRKVNAQVRKVVAMSEDELMTEAKNLGAPYELLLQIKKDGKLPVVNFAAGGVATPADAALMMQLGADGVFVGSGIFKSDNPAKFAKAIVEATTHFTDYKLIAELSKELGTAMKGIEISNLLPEQRMQERGW	kcat	s⁻¹	0.0001
PLP synthase (Pdx1-His6 + Pdx2) (Bacillus subtilis subsp. subtilis str. 168; H115A) (protein, complex of C-terminally hexahistidine-tagged Pdx1 with Pdx2-His6; with Pyridoxal 5'-phosphate synthase subunit PdxT) AQTGTERVKRGMAEMQKGGVIMDVINAEQAKIAEEAGAVAVMALERVPADIRAAGGVARMADPTIVEEVMNAVSIPVMAKARIGHIVEARVLEAMGVDYIDESEVLTPADEEFALNKNEYTVPFVCGCRDLGEATRRIAEGASMLRTKGEPGTGNIVEAVRHMRKVNAQVRKVVAMSEDELMTEAKNLGAPYELLLQIKKDGKLPVVNFAAGGVATPADAALMMQLGADGVFVGSGIFKSDNPAKFAKAIVEATTHFTDYKLIAELSKELGTAMKGIEISNLLPEQRMQERGW	kcat	s⁻¹	0.00013
PLP synthase (Pdx1-His6 + Pdx2) (Bacillus subtilis subsp. subtilis str. 168; R138A) (protein, complex of C-terminally hexahistidine-tagged Pdx1 with Pdx2-His6; with Pyridoxal 5'-phosphate synthase subunit PdxT) AQTGTERVKRGMAEMQKGGVIMDVINAEQAKIAEEAGAVAVMALERVPADIRAAGGVARMADPTIVEEVMNAVSIPVMAKARIGHIVEARVLEAMGVDYIDESEVLTPADEEFHLNKNEYTVPFVCGCRDLGEATRAIAEGASMLRTKGEPGTGNIVEAVRHMRKVNAQVRKVVAMSEDELMTEAKNLGAPYELLLQIKKDGKLPVVNFAAGGVATPADAALMMQLGADGVFVGSGIFKSDNPAKFAKAIVEATTHFTDYKLIAELSKELGTAMKGIEISNLLPEQRMQERGW	kcat	s⁻¹	0.0002
PLP synthase (Pdx1-His6 + Pdx2) (Bacillus subtilis subsp. subtilis str. 168) (protein, complex of C-terminally hexahistidine-tagged Pdx1 with Pdx2-His6; with Pyridoxal 5'-phosphate synthase subunit PdxT) AQTGTERVKRGMAEMQKGGVIMDVINAEQAKIAEEAGAVAVMALERVPADIRAAGGVARMADPTIVEEVMNAVSIPVMAKARIGHIVEARVLEAMGVDYIDESEVLTPADEEFHLNKNEYTVPFVCGCRDLGEATRRIAEGASMLRTKGEPGTGNIVEAVRHMRKVNAQVRKVVAMSEDELMTEAKNLGAPYELLLQIKKDGKLPVVNFAAGGVATPADAALMMQLGADGVFVGSGIFKSDNPAKFAKAIVEATTHFTDYKLIAELSKELGTAMKGIEISNLLPEQRMQERGW	kcat	s⁻¹	0.0006
